target: UniProt:Q13574; experiment: Biochemical DGK IC50 assay, DGKζ ADP-Glo assay; conditions: 0.5 nM enzyme, 140 μM ATP, 80 μM DAG; read-out: DGKζ ADP-Glo assay IC50
REPORTED METRIC: IC50

1) CC[C@H]1CN(C(C)c2cnc(C)n2CC)[C@H](CC)CN1c1cc(=O)n(C)c2cn(CC#N)nc12 (stereo partly drawn): > 10 µM
2) CC[C@@H]1CN(c2cc(=O)n(C)c3cn(CC(F)F)nc23)[C@@H](C)CN1C(C)c1ccc2nccnc2c1 (single isomer, unassigned) [Compound A222b]: > 10 µM

Now let's try a different one.
stdin: Identify the reported IC50 for the following entry. CC(c1ccc(F)cc1C1(O)COC1)N1C[C@H](C)N(c2cc(=O)n(C)c3cn(CC#N)nc23)C[C@H]1C (stereo partly drawn)
stdout: > 10 µM

* * *

target: DGKζ (Homo sapiens (Human)); assay: Biochemical DGK IC50 assay, DGKζ ADP-Glo assay; conditions: 0.5 nM enzyme, 140 μM ATP, 80 μM DAG; read-out: DGKζ ADP-Glo assay IC50
Sequence (Q13574 other isoform, or with tags, fused parts or gaps): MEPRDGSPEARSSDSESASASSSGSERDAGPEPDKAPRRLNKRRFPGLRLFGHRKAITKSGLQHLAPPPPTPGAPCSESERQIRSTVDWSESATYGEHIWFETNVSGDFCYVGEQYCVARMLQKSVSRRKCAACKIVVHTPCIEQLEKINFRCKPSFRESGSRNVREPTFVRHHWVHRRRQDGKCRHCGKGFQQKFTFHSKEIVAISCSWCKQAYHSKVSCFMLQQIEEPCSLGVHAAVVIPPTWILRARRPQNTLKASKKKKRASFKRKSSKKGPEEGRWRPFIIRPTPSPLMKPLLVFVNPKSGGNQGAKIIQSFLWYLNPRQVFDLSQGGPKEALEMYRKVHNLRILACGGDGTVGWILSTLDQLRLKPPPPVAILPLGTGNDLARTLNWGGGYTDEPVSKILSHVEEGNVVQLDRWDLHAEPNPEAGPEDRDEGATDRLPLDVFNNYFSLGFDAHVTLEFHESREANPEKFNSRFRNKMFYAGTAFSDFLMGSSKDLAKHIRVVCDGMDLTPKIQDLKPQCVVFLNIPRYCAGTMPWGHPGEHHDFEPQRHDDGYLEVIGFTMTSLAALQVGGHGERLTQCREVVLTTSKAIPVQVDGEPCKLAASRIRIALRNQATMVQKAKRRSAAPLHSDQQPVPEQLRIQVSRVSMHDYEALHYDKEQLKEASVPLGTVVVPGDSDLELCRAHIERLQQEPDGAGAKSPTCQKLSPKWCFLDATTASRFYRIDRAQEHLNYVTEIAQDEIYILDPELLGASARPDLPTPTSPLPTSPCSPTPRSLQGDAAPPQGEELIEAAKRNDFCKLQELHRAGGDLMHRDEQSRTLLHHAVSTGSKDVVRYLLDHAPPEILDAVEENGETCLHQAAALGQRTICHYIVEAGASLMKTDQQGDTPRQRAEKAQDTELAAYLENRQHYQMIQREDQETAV
Kindly supply the reported pIC50 values for the records listed here.
Answers are plain numbers, as −log10 of the molar value.

1. CC[C@H]1CN(C(C)c2ncc(C)cc2F)[C@H](CC)CN1c1cc(=O)n(C)c2cn(CC#N)nc12 (stereo partly drawn): 6.52

Hi there! I need pIC50 for each item below, if you can.
1. CC[C@H]1CN(C(C)c2cccnc2C(F)(F)F)[C@H](CC)CN1c1cc(=O)n(C)c2cn(CC#N)nc12 (stereo partly drawn)
2. Cc1nc2cccc(C(C)N3C[C@H](C)N(c4cc(=O)n(C)c5cn(CC#N)nc45)C[C@H]3C)c2o1 (stereo partly drawn)

stdout:
1. 6.42
2. 5.47

List pIC50 for every entry below, keeping the order given.
1. CC[C@H]1CN(C(C)c2cc(C(F)(F)F)nn2CC)[C@H](CC)CN1c1cc(=O)n(C)c2cn(CC#N)nc12 (stereo partly drawn) [Compound A211]
2. CC[C@@H]1CN(c2cc(=O)n(C)c3cn(CC#N)nc23)[C@@H](COC)CN1C(C)c1ccc2nccnc2c1 (stereo partly drawn)
3. CC[C@@H]1CN(c2cc(=O)n(C)c3cn(CC#N)nc23)[C@@H](C)CN1C(C)c1ccc(C(F)(F)F)cc1F (single isomer, unassigned) [Compound A202b]
4. CCC(c1ccc(F)cc1C(F)(F)F)N1C[C@H](CC)N(c2cc(=O)n(C)c3cn(CC#N)nc23)C[C@H]1CC (stereo partly drawn)
5. COc1cnc2ccc(C(C)N3C[C@H](C)N(c4cc(=O)n(C)c5cn(CC#N)nc45)C[C@H]3C)cc2n1 (stereo partly drawn)
6. CC[C@H]1CN(C(C)c2ccc(C(F)F)nc2)[C@H](CC)CN1c1cc(=O)n(C)c2cn(CC#N)nc12 (single isomer, unassigned) [Compound A351a]

stdout:
1: 6.63; 2: 7.00; 3: 5.52; 4: 6.63; 5: 6.77; 6: 6.78

* * *

target: UniProt:Q13574; assay: Biochemical DGK IC50 assay, DGKζ ADP-Glo assay; conditions: 0.5 nM enzyme, 140 μM ATP, 80 μM DAG; read-out: DGKζ ADP-Glo assay IC50
pIC50: −log10 of the molar value.
Please respond with reported pIC50 for every item in the list.

Worked set:
1) CC[C@H]1CN(C(C)c2cccn(C)c2=O)[C@H](CC)CN1c1cc(=O)n(C)c2cn(CC#N)nc12 (stereo partly drawn): < 5.00
2) CC[C@@H]1CN(c2cc(=O)n(C)c3cn(CC#N)nc23)CCN1C(C)c1ccc2nccnc2c1 (single isomer, unassigned) [Compound A161a]: < 5.00

Next, consider the following compound.
stdin: # return pIC50 for CC[C@H]1CN([C@H](C)c2nc3ncccc3n2CC)[C@H](CC)CN1c1cc(=O)n(C)c2cn(CC#N)nc12 (single isomer, unassigned) [Compound A215a] , test system: UniProt:Q13574
stdout: < 5.00
